biological target: IRAK4 enzyme (Homo sapiens (Human), UniProt Q9NWZ3); test: biochemical; assay type: biochemical; settings: IRAK4 enzyme, TR-FRET, 500 μM ATP
Sequence (Q9NWZ3 whole entry): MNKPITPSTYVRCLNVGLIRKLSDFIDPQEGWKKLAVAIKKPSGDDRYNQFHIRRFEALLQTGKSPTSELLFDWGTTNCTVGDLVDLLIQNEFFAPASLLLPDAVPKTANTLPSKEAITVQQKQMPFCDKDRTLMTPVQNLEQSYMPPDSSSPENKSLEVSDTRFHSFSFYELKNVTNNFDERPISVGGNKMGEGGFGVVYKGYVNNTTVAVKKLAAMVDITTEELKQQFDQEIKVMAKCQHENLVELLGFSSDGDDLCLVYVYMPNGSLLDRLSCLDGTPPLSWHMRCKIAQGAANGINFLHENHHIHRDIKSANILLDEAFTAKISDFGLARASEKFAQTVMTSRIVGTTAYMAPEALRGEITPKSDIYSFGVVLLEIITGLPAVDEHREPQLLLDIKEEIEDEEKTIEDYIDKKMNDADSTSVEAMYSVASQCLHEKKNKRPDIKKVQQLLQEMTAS
pIC50: −log10 of the molar value.
Recorded pIC50, one value per entry.
Property: pIC50

[[record]]
compound = "CC(C)(O)[C@H](F)CNC(=O)c1cnc(-c2ccc3cc(C#N)cnn23)cc1Nc1ccc(C(F)F)nc1"
target_or_system = "IRAK4 enzyme (Homo sapiens (Human), UniProt Q9NWZ3)"
property = "pIC50"
qualifier_sign = ">"
reported_measurement = 9.00

[[record]]
compound = "CC(C)(O)[C@H](F)CNC(=O)c1cnc(-c2ccc3cc(C#N)cnn23)cc1Nc1cnn(CC(F)F)c1"
target_or_system = "IRAK4 enzyme (Homo sapiens (Human), UniProt Q9NWZ3)"
property = "pIC50"
qualifier_sign = ">"
reported_measurement = 9.00

[[record]]
compound = "CN(C)C1CCC(NC(=O)c2cnc(-c3ccc4cc(C#N)cnn34)cc2N[C@H]2CCC[C@@H](O)C2)CC1 (some centres unmarked)"
target_or_system = "IRAK4 enzyme (Homo sapiens (Human), UniProt Q9NWZ3)"
property = "pIC50"
qualifier_sign = "="
reported_measurement = 9.00

[[record]]
compound = "CC(C)(O)[C@H](F)CNC(=O)c1cnc(-c2ccc3cc(C#N)cnn23)cc1NC1C2CNCC1C2 (single isomer, unassigned) [Example 25]"
target_or_system = "IRAK4 enzyme (Homo sapiens (Human), UniProt Q9NWZ3)"
property = "pIC50"
qualifier_sign = "="
reported_measurement = 8.70

[[record]]
compound = "CC(C)Nc1cc(-c2ccc3cc(C#N)cnn23)ncc1C(=O)NCCC1(O)CCOCC1"
target_or_system = "IRAK4 enzyme (Homo sapiens (Human), UniProt Q9NWZ3)"
property = "pIC50"
qualifier_sign = "="
reported_measurement = 9.00

[[record]]
compound = "CC(C)Nc1cc(-c2ccc3cc(C#N)cnn23)ncc1C(=O)NC1CC2(C1)CC(C)(O)C2 (centres unmarked)"
target_or_system = "IRAK4 enzyme (Homo sapiens (Human), UniProt Q9NWZ3)"
property = "pIC50"
qualifier_sign = ">"
reported_measurement = 9.00

[[record]]
compound = "CC(C)(O)[C@H](F)CNC(=O)c1cnc(-c2ccc3cc(C#N)cnn23)cc1Nc1ccc(CN2CCOC2=O)cc1"
target_or_system = "IRAK4 enzyme (Homo sapiens (Human), UniProt Q9NWZ3)"
property = "pIC50"
qualifier_sign = "="
reported_measurement = 9.00

[[record]]
compound = "CC(C)(O)[C@H](F)CNC(=O)c1cnc(-c2ccc3cc(C#N)cnn23)cc1Nc1ccc(C(C)(C)N2CCCC2=O)cc1"
target_or_system = "IRAK4 enzyme (Homo sapiens (Human), UniProt Q9NWZ3)"
property = "pIC50"
qualifier_sign = "="
reported_measurement = 8.70

[[record]]
compound = "CC(C)(O)[C@H](F)CNC(=O)c1cnc(-c2ccc3cc(C#N)cnn23)cc1N[C@@H]1CCOC[C@@H]1F"
target_or_system = "IRAK4 enzyme (Homo sapiens (Human), UniProt Q9NWZ3)"
property = "pIC50"
qualifier_sign = ">"
reported_measurement = 9.00

[[record]]
compound = "CC(C)(O)[C@H](F)CNC(=O)c1cnc(-c2ccc3cc(C#N)cnn23)cc1Nc1nc(Cc2ccccc2)ns1"
target_or_system = "IRAK4 enzyme (Homo sapiens (Human), UniProt Q9NWZ3)"
property = "pIC50"
qualifier_sign = "="
reported_measurement = 8.52

[[record]]
compound = "CC(C)(O)[C@H](F)CNC(=O)c1cnc(-c2ccc3cc(C#N)cnn23)cc1N[C@@H]1CCOC[C@H]1F"
target_or_system = "IRAK4 enzyme (Homo sapiens (Human), UniProt Q9NWZ3)"
property = "pIC50"
qualifier_sign = ">"
reported_measurement = 9.00

[[record]]
compound = "COC(=O)NC1CCN(c2ccc(Nc3cc(-c4ccc5cc(C#N)cnn45)ncc3C(=O)NC[C@@H](F)C(C)(C)O)cn2)CC1"
target_or_system = "IRAK4 enzyme (Homo sapiens (Human), UniProt Q9NWZ3)"
property = "pIC50"
qualifier_sign = ">"
reported_measurement = 9.00

[[record]]
compound = "CC(C)(O)[C@H](F)CNC(=O)c1cnc(-c2ccc3cc(C#N)cnn23)cc1NC1CC2(CCNC2)C1 (some centres unmarked)"
target_or_system = "IRAK4 enzyme (Homo sapiens (Human), UniProt Q9NWZ3)"
property = "pIC50"
qualifier_sign = "="
reported_measurement = 9.00

[[record]]
compound = "CC(C)(O)[C@H](F)CNC(=O)c1cnc(-c2ccc3cc(C#N)cnn23)cc1Nc1ccc(-c2nc[nH]n2)cc1"
target_or_system = "IRAK4 enzyme (Homo sapiens (Human), UniProt Q9NWZ3)"
property = "pIC50"
qualifier_sign = ">"
reported_measurement = 9.00

